target: human NPFFR1 (hNPFFR1) receptor (Homo sapiens, UniProt Q9GZQ6); test: Human NPFFR1 evaluation using BRET biosensors (antagonist IC50); settings: hNPFFR1 transiently over-expressed in HEK-293 T cells; BRET signal; stimulation by EC80 RFRP-3
Sequence (Q9GZQ6 whole entry): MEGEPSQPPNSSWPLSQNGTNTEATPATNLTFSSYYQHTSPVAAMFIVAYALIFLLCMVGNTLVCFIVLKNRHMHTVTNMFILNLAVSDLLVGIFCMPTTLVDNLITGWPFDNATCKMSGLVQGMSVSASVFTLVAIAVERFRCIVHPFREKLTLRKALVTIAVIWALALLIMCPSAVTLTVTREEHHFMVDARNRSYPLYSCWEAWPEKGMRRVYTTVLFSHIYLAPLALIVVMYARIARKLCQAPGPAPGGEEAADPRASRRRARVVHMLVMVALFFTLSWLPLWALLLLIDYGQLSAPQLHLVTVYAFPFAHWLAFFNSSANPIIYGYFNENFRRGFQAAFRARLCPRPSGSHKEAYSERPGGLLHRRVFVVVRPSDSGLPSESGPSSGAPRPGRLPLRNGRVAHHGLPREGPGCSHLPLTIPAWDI
pIC50: −log10 of the molar value.
Assignment: determine reported pIC50 for the given compounds.

Ask: Which pIC50 is listed for CCOc1ccc2cccc(-c3ccc(N)nc3CC)c2n1.Cl ?
Reply: > 7.00

Ask: Reported pIC50 for CCc1nc(N)ccc1-c1c(F)ccc2cc(-c3ccccc3)cnc12.Cl : what is it?
Reply: 6.00 to 7.00

Ask: Returns the measured pIC50 for the input compound. Input: CCc1nc(N)ccc1-c1cccc2c1N(C)CCC2.Cl
Reply: 6.00 to 7.00

Ask: So what does the record say about pIC50 for CCc1nc(N)ccc1-c1cccc2c1N(C)CC2.Cl ?
Reply: 6.00 to 7.00

Ask: Param item = CC(C)(C)OC(=O)n1cc(-c2ccc(N)nc2N)c2ccccc21 ; retrieve measured pIC50.
Reply: < 6.00

Ask: Query (compound): Nc1ccc(-c2ccnc3ccccc23)c(N)n1 ; field requested: pIC50
Reply: < 6.00

Ask: Fill in the blank: the reported pIC50 of Cl.Nc1ccc(-c2cccc3scnc23)c(N)n1 is ____.
Reply: 6.00 to 7.00

Ask: Item under review: CCc1nc(N)ccc1-c1c(F)c(F)cc2cc(Cl)cnc12 . Reported pIC50?
Reply: > 7.00

Ask: // lookup pIC50 for CC(C)c1nc(N)ccc1-c1csc2ccccc12.Cl
Reply: 6.00 to 7.00

Ask: So what's the measured pIC50 for this one? CCc1nc(N)ccc1-c1cccc2ccc(C(=O)N(CC)C3CCCCC3)nc12.Cl
Reply: > 7.00

Ask: Quick one: pIC50 of CCc1nc(N)ccc1-c1c(OC(F)F)ccc2cccnc12.Cl ?
Reply: > 7.00

Ask: Form field: reported pIC50 of Cl.Nc1ccc(-c2ccc(F)c3cccnc23)c(N)n1
Reply: > 7.00

Ask: Request the reported pIC50 associated with Cl.Nc1ccc(-c2c(F)ccc3cccnc23)c(CC2CC2)n1
Reply: > 7.00

Ask: What value of pIC50 has been recorded for this entry: CC(C)c1nc(N)ccc1-c1cccc2ccncc12.Cl
Reply: 6.00 to 7.00

Ask: Consider the compound shown here: CCc1nc(N)ccc1-c1cccc2ccc(-c3cccnc3)nc12 What is its recorded pIC50?
Reply: > 7.00

Ask: Any idea what its pIC50 is? The compound is Nc1ccc(-c2coc3ccccc23)c(N)n1
Reply: 6.00 to 7.00

Ask: Tell me the measured pIC50 of Nc1ccc(-c2cnn3ccccc23)c(N)n1 , please.
Reply: < 6.00

Ask: Quick one: pIC50 of CCc1nc(N)ccc1-c1cccc2ccc(N3CCC(F)(F)CC3)nc12.Cl ?
Reply: > 7.00

Ask: Requested field: pIC50. Item: CC(C)CCc1nc(N)ccc1-c1c(F)ccc2cccnc12.Cl
Reply: > 7.00

###

Provide the recorded melting point for the entries that follow.

Ask: So what's the measured melting point for this one? CCc1nc(N)ccc1-c1c(F)ccc2ccc(N(CC)C3CCCCC3)nc12.Cl
Reply: 160 to 210 °C

Ask: Item CCc1nc(N)ccc1-c1csc2ccc(F)cc12.Cl has what recorded melting point?
Reply: > 250 °C

Ask: Give the measured melting point of CCc1nc(N)ccc1-c1cccc2ccc(=O)[nH]c12.Cl .
Reply: > 250 °C

Ask: I am curious: what melting point value has been reported for Cn1ccc2cccc(-c3ccc(N)nc3N)c21 ?
Reply: 100 to 117 °C

Ask: # get_value(readout='melting point', item= CCc1nc(N)ccc1-c1c(F)ccc2ccc(N3CCCOCC3)nc12.Cl )
Reply: 100 to 150 °C

Ask: What does the data say about its melting point? Entry: CCc1nc(N)ccc1-c1cccc2ccc(C3CCCCC3)nc12.Cl
Reply: 137 to 142 °C

Ask: Returns the measured melting point for the input compound. Input: CCc1nc(N)ccc1-c1cccc2ccc(-c3cnccn3)nc12.Cl
Reply: > 250 °C

Ask: # input compound: Cc1ccc2ccc(F)c(-c3ccc(N)nc3N)c2n1.Cl ; wanted: its melting point
Reply: 130 to 170 °C

Ask: Quick one: melting point for CCc1nc(N)ccc1-c1cccc2c1N(C)CCC2.Cl ?
Reply: 155 to 165 °C

Ask: Given the entry Cn1cc(-c2ccc(N)nc2N)c2ccccc21 , report its measured melting point.
Reply: 47 to 55 °C

###

molecular target: human NPFFR1 (hNPFFR1) receptor (Homo sapiens); test: Human NPFFR1 evaluation using BRET biosensors (antagonist IC50); conditions: hNPFFR1 transiently over-expressed in HEK-293 T cells; BRET signal; stimulation by EC80 RFRP-3
pIC50: −log10 of the molar value.
Provide the recorded pIC50 for the entries that follow.

Ask: Look up pIC50: CCc1nc(N)ccc1-c1c(F)ccc2ccc(N3CCCCCC3)nc12.Cl [Example 137]
Reply: > 7.00

Ask: For the compound shown here, CCc1nc(N)ccc1-c1cccc2ccc(C3CCCCC3)nc12.Cl [Example 118] , give the reported pIC50.
Reply: > 7.00

Ask: # get_value(readout='pIC50', item= Cl.Nc1ccc(-c2cccc3sccc23)c(N)n1 [Example 51] )
Reply: > 7.00

Ask: # pIC50 lookup, item CCc1nc(N)ccc1-c1c(F)ccc2cc(Cl)cnc12 [Example 146]
Reply: > 7.00

Ask: Which measured pIC50 value corresponds to Cl.Nc1ccc(-c2cccc3[nH]ccc23)c(N)n1 [Example 24, 3-(1H-Indol-4-yl)pyridine-2,6-diamine] ?
Reply: 6.00 to 7.00

Ask: Please give the measured pIC50 for this compound: CCc1nc(N)ccc1-c1cccc2cc(F)cnc12.Cl [Example 97]
Reply: > 7.00

Ask: I'd like to know its pIC50. The compound in question is Cl.Nc1ccc(-c2ccc(C(F)(F)F)c3cccnc23)c(N)n1 [Example 54]
Reply: < 6.00

Ask: # input compound: Nc1ccc(-c2cccc3cccnc23)c(N)n1 [Example 31, 3-(8-quinolyl)pyridine-2,6-diamine] ; wanted: its pIC50
Reply: > 7.00

Ask: What value of pIC50 has been recorded for this entry: CCc1nc(N)ccc1-c1c(Cl)ccc2cccnc12 [Example 110]
Reply: > 7.00

###

target: human NPFFR1 (hNPFFR1) receptor (Homo sapiens, UniProt Q9GZQ6); experiment: Human NPFFR1 evaluation using BRET biosensors (antagonist IC50); settings: hNPFFR1 transiently over-expressed in HEK-293 T cells; BRET signal; stimulation by EC80 RFRP-3
METRIC NAME: IC50

Ask: Entry CCc1nc(N)ccc1-c1csc2ccc(C)cc12.Cl [Example 42] has what IC50?
Reply: 0.1 to 1 µM

Ask: Entry under review: Cc1ccc2ccc(F)c(-c3ccc(N)nc3N)c2n1.Cl [Example 23] . Reported IC50?
Reply: < 0.1 µM

Ask: Returns the measured IC50 for the input compound. Input: CCc1nc(N)ccc1-c1cccc2ccnn12.Cl [Example 104]
Reply: 0.1 to 1 µM

Ask: Fill in: IC50 of CCc1nc(N)ccc1-c1c(F)cc(F)c2cc(F)cnc12.Cl [Example 145] is ___
Reply: < 0.1 µM

Ask: Look at this compound and give its reported IC50. CCCc1nc(N)ccc1-c1cccc2ccncc12.Cl [Example 9]
Reply: < 0.1 µM

Ask: # query: IC50 of entry Cl.Nc1ccc(-c2c(F)ccc3cccnc23)c(N)n1 [Example 57]
Reply: < 0.1 µM

Ask: Can you look up the measured IC50 of CCc1nc(N)ccc1-c1cccc2ccc(OCCN3CCOCC3)nc12 [Example 130] for me?
Reply: 0.1 to 1 µM

Ask: May I ask what IC50 has been recorded for CCc1nc(N)ccc1-c1cccc2ccc(-c3cnccn3)nc12.Cl [Example 126] ?
Reply: < 0.1 µM

Ask: Recorded IC50 of CC(C)Cc1nc(N)ccc1-c1cccc2cccnc12.Cl [Example 67] , please.
Reply: < 0.1 µM

Ask: Give the measured IC50 of CCc1nc(N)ccc1-c1c(F)ccc2ccc(N3CCCOCC3)nc12.Cl [Example 134] .
Reply: < 0.1 µM

###

Exercise: state measured melting point for each of the molecules provided.

Ask: I have this molecule here, CCc1nc(N)ccc1-c1ccccc1-c1ccc(OC)nc1 , and I need its recorded melting point.
Reply: 165 to 180 °C

Ask: Requested read-out: melting point. Entry: Cl.Nc1ccc(-c2cccc3scnc23)c(N)n1
Reply: > 250 °C

Ask: I would be grateful if you could share the reported melting point for CCc1nc(N)ccc1-c1csc2ccc(C)cc12.Cl .
Reply: 64 to 88 °C

Ask: Quick one: melting point for CCc1nc(N)ccc1-c1c(F)c(F)cc2ccc(O)nc12.Cl ?
Reply: > 250 °C

Ask: Requested read-out: melting point. Entry: CCc1nc(N)ccc1-c1cccc2c1NCC2.Cl
Reply: 175 to 183 °C
